assay_text: Tmax in Sprague-Dawley rat at 5 mg/kg, po
Format: ADME, organism-based
Design: dose 5 mg/kg, route oral
cond: Sprague-Dawley, in vivo
value_kind: Tmax (h)
Write the value in h as a bare number.

Prompt: Give the measured Tmax of COc1ncc(-c2ccc3nc(N)c(-c4ccc(N5CCOCC5)cc4)cc3c2)cc1NS(=O)(=O)c1ccc(F)cc1F .
Completion: 0.67

Prompt: Give the measured Tmax of COc1ncc(-c2ccc3nc(N)n(-c4ccccc4)c(=O)c3c2)cc1NS(=O)(=O)c1ccc(F)cc1F .
Completion: 6

Prompt: Give the measured Tmax of COc1ncc(-c2ccc3nc(N)n(-c4ccccc4C(F)(F)F)c(=O)c3c2)cc1S(=O)(=O)Nc1ccc(F)cc1F (atropisomer aR) .
Completion: 3
